Hello, the source for this data is a melting point compilation (Tetko et al.; mined from patent text by program, amines drawn as free bases though some values may be those of a salt), in case you need it.

Reported melting point values for a set of compounds

// worked examples, melting point included
C#Cc1ccc2c(c1)[C@@H](N)[C@H](O)CO2 (relative stereo)	132 to 134 °C
CC1(C)c2ccc(C(O)CN3CCN(c4n[nH]c5ccccc45)CC3)cc2C(C)(C)C1O (stereo not given)	104 to 110 °C
CCOC(=O)C1=NN(c2ccc(Cl)cc2)C2(N3CCCC3)CCCC12 (stereo not given)	95 to 96 °C

What does the record list as melting point for COC(=O)Cn1c(=O)c(=O)[nH]c2cc(C(F)(F)F)c(-n3cccc3)cc21 ?
141 to 142 °C

Again, but for CNC(=O)c1ccnc(NC(=O)N2CCC3(CCc4cc(F)ccc4O3)CC2)c1
175 to 176 °C

###

compounds and their reported melting point

O=C1CCC(N2C(=O)c3ccccc3C2=O)c2ccsc21 (configuration not stated)	163 to 166 °C
Cc1[nH]cnc1C=C1CCc2c(C)c3ccccc3n2C1=O	252 to 255 °C
CCCCS(=O)(=O)NC(=O)CCc1cc(OC(C)C)nn1Cc1ccc(Cl)cc1Cl	133 to 134 °C
CCS(=O)(=O)N[C@H](C(=O)NCc1ccc(OCC#Cc2ccc(Cl)cc2)c(OC)c1)C(C)C	162 to 163 °C
CC1(C)CC(=NNC(=N)NN=C2CC(C)(C)NC(C)(C)C2)CC(C)(C)N1	163 to 167 °C

What measured melting point goes with Cc1sc(NS(=O)(=O)c2c(Cl)cc(Cl)cc2Cl)nc1CC(=O)N1CCOCC1 ?
216 to 217 °C

And what about the compound Cc1c(-c2ncc(Cl)cc2F)nn(C)c1C(N)=O ?
201 to 204 °C

What about this compound? C/C(=C\C=C\C#N)c1ccc(OCc2nc(-c3ccccc3)oc2C)cc1
134 to 136 °C

Continue with OCCON=Cc1ccccn1
45 °C

Let us now turn to CCCCCCc1nc2ccccc2n1Cc1ccc(C(=O)O)cc1
191 to 193 °C

Further, for O=C(NCc1ccccc1)C12CC3CC(CC(C3)C1)C2 ?
170 to 172 °C

Same thing, different compound: N[C@H]1CCN(c2ccc3c(C(=O)NCC4CCCCC4)cccc3n2)C1
127 to 128 °C

Now consider Cc1nc(-c2cccc(C(=O)c3ccccc3)c2)sc1C(=O)O and answer again.
213 to 215 °C

###

List of melting point values.

CCC1(CCOC2CCCCO2)C(=O)N2CC=CC(C(=O)OC)N2C1=O (stereo unspecified)	96 to 97 °C
CCc1nn2ccc3c(c2c1C(C)CNC(C)=O)CCO3 (stereo unspecified)	151 to 153 °C
CC(=O)N1CCC(CCCCC(=O)c2ccc(F)cc2)CC1	98 to 100 °C
O=C(O)c1ccc(OC(F)F)c2oc3ccncc3c12	> 250 °C

Recorded melting point for O=C([C@@H](Cc1ccc(Cl)cc1)NC1CCCCC1)N1CCC(Cn2cncn2)(C2CCCCC2)CC1 , please?
60 °C

Item: O=C(Oc1cccc(F)c1)c1ccc(F)cc1
43.5 to 45.2 °C

Same again, this time with CN(C)C(C#N)C1(c2ccc(Cl)cc2)CCC1 (stereo unspecified)
90 to 91 °C

Entry to check: O=c1ccc(-c2c(-c3ccccc3)nn3ccncc23)c[nH]1
> 250 °C

Please do the same for CC(C)Cn1cnc2c(C(N)=O)nc3ccccc3c21 as well.
225 to 226 °C

Follow-up entry: Cc1noc(NS(=O)(=O)c2ccccc2-c2ccc(-c3ncoc3C)cc2)c1C
86 to 96 °C

Check Cn1cc(-c2ccc(C(F)(F)F)cc2)c(=O)c(-c2cccc(Cl)c2)c1 too.
147 to 151 °C
